# experimental_system: IRAK4 (Homo sapiens, UniProt Q9NWZ3)
# Construct: endogenous in cells; host or cells: OCI-LY10
# Sequence (Q9NWZ3 whole entry): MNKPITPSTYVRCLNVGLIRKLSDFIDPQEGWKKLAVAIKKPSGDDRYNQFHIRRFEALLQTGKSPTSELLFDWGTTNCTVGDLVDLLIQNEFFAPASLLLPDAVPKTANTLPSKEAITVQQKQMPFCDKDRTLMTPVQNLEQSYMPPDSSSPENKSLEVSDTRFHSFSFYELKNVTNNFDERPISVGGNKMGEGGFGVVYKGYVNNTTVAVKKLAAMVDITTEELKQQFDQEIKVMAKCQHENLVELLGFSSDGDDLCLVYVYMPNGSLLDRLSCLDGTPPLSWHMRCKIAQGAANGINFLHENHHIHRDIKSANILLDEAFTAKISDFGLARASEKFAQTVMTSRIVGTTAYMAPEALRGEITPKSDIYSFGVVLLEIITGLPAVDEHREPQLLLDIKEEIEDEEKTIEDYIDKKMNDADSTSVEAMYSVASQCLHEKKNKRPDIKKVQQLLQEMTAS
# protocol_notes: IRAK4 MSD degradation in OCI-LY10
# Format: cell-based
# settings: OCI-LY10 cells, 24 hrs, Meso Scale Discovery
measurement_kind: DC50

Some entries whose results are on file:
[[record]]
compound = "Cn1c(=O)n(C2CCC(=O)NC2=O)c2cccc(C#CCN3CCN(C[C@H]4CC[C@H](n5cc(NC(=O)c6cnn7ccc(N8C[C@H]9C[C@@H]8CO9)nc67)c(C(F)F)n5)CC4)C[C@@H]3C(F)(F)F)c21 (single isomer, unassigned)"
measurement_kind = "DC50"
observed_value = "0.01 to 0.1 µM"

[[record]]
compound = "Cn1c(=O)n(C2CCC(=O)NC2=O)c2cccc([C@@H]3CCN(C[C@H]4CC[C@H](n5cc6cc(NC(=O)c7cncc(OC(F)F)n7)ccc6n5)CC4)C[C@H]3F)c21 (stereo partly drawn)"
measurement_kind = "DC50"
observed_value = "< 0.01 µM"


Note to self: DC50 recorded for Cn1c(=O)n(C2CCC(=O)NC2=O)c2cccc([C@H]3CCN(C[C@H]4CC[C@H](n5cc6cc(NC(=O)c7cncc(C(F)(F)F)n7)ncc6n5)CC4)CC3(F)F)c21 (single isomer, unassigned) was < 0.01 µM

* * *

# experimental_system: IRAK4 (Homo sapiens, UniProt Q9NWZ3)
# Construct: endogenous in cells; host or cells: OCI-LY10
# protocol_notes: IRAK4 MSD degradation in OCI-LY10
# Type: cell-based
# settings: OCI-LY10 cells, 24 hrs, Meso Scale Discovery
measurement_kind: DC50

Some entries whose results are on file:
[[record]]
molecule = "Cn1c(=O)n(C2CCC(=O)NC2=O)c2cccc([C@@H]3CCN(C[C@H]4CC[C@H](n5cc6cc(NC(=O)c7cc(C(F)(F)F)ncn7)ccc6n5)CC4)C[C@H]3F)c21 (stereo partly shown)"
experimental_system = "IRAK4 (Homo sapiens, UniProt Q9NWZ3)"
observed_value = "> 200 nM"

[[record]]
molecule = "COc1cc2nn([C@H]3CC[C@H](CN4CCC5(CN(c6ccc(C7CCC(=O)NC7=O)c(Cl)c6)C5)C(F)(F)C4)CC3)cc2cc1NC(=O)c1cncc(C#N)c1 (stereo partly shown)"
experimental_system = "IRAK4 (Homo sapiens, UniProt Q9NWZ3)"
observed_value = "10 to 100 nM"

[[record]]
molecule = "CN(C[C@H]1CC[C@H](c2nc3cc(C(C)(C)O)c(NC(=O)c4cncc(C(F)(F)F)c4)cc3s2)CC1)[C@H]1CCN(c2cccc3c2n(C)c(=O)n3C2CCC(=O)NC2=O)C[C@H]1F (single isomer, unassigned)"
experimental_system = "IRAK4 (Homo sapiens, UniProt Q9NWZ3)"
observed_value = "< 10 nM"

[[record]]
molecule = "COc1cc2nn([C@H]3CC[C@H](CN4CC[C@H](c5cccc6c5n(C)c(=O)n6C5CCC(=O)NC5=O)[C@@H](F)C4)CC3)cc2cc1NC(=O)c1cncc(C#N)c1 (single isomer, unassigned)"
experimental_system = "IRAK4 (Homo sapiens, UniProt Q9NWZ3)"
observed_value = "< 10 nM"

[[record]]
molecule = "Cn1c(=O)n(C2CCC(=O)NC2=O)c2cccc([C@@H]3CCN(C[C@H]4CC[C@H](n5cc6cc(NC(=O)c7cccc(C(F)(F)F)c7)ccc6n5)CC4)C[C@H]3F)c21 (stereo partly shown)"
experimental_system = "IRAK4 (Homo sapiens, UniProt Q9NWZ3)"
observed_value = "< 10 nM"

[[record]]
molecule = "COc1cc2nn([C@H]3CC[C@H](CN4CCC5(CCN(c6cccc7c6n(C)c(=O)n7C6CCC(=O)NC6=O)CC5)C(F)(F)C4)CC3)cc2cc1NC(=O)c1cncc(C#N)c1 (stereo partly shown)"
experimental_system = "IRAK4 (Homo sapiens, UniProt Q9NWZ3)"
observed_value = "< 10 nM"

[[record]]
molecule = "Cn1c(=O)n(C2CCC(=O)NC2=O)c2ccc(F)c(N3CC(N4CCN([C@H]5CC[C@H](n6cc(NC(=O)c7cnn8ccc(N9C[C@H]%10C[C@@H]9CO%10)nc78)c(C(F)F)n6)CC5)CC4)C3)c21 (stereo partly shown)"
experimental_system = "IRAK4 (Homo sapiens, UniProt Q9NWZ3)"
observed_value = "< 10 nM"

[[record]]
molecule = "CN(C[C@H]1CC[C@H](n2cc3cc(NC(=O)c4cccc(C(F)(F)F)n4)c(C#N)cc3n2)CC1)[C@@H]1CCN(c2cccc3c2n(C)c(=O)n3C2CCC(=O)NC2=O)C[C@H]1F (stereo partly shown)"
experimental_system = "IRAK4 (Homo sapiens, UniProt Q9NWZ3)"
observed_value = "< 10 nM"


Note to self: DC50 recorded for COc1cc2nn([C@H]3CC[C@H](CN4CCC5(CN(c6cccc7c6n(C)c(=O)n7C6CCC(=O)NC6=O)C5)C(F)(F)C4)CC3)cc2cc1NC(=O)c1cccc(C(F)(F)F)c1 (stereo partly shown) was < 10 nM

Note to self: DC50 recorded for COc1cc2nn([C@H]3CC[C@H](CN4CC[C@@H](c5cccc6c5n(C)c(=O)n6C5CCC(=O)NC5=O)[C@H](F)C4)CC3)cc2cc1C(=O)Nc1cccc(C(F)(F)F)c1 (stereo partly shown) was < 10 nM

* * *

# experimental_system: IRAK4 (Homo sapiens, UniProt Q9NWZ3)
# Construct: endogenous in cells; host or cells: OCI-LY10
# protocol_notes: IRAK4 MSD degradation in OCI-LY10
# Assay type: cell-based
# settings: OCI-LY10 cells, 24 hrs, Meso Scale Discovery
# DC50 values compiled below

[[record]]
compound = "Cn1c(=O)n(C2CCC(=O)NC2=O)c2cccc(C#CCN3CCN(C[C@H]4CC[C@H](n5cc(NC(=O)c6cnn7ccc(N8C[C@H]9C[C@@H]8CO9)nc67)c(C(F)F)n5)CC4)[C@@H](C(F)(F)F)C3)c21 (some centres unmarked) [I-320]"
observed_value = "10 to 100 nM"

[[record]]
compound = "Cn1nc(C2CCC(=O)NC2=O)c2cccc([C@H]3CCN(C[C@H]4CC[C@H](n5cc6cc(NC(=O)c7cncc(C#N)c7)c(C(C)(C)O)cc6n5)CC4)CC3(F)F)c21 (single isomer, unassigned) [I-223]"
observed_value = "< 10 nM"

[[record]]
compound = "CN(C[C@H]1CC[C@H](c2cn3cc(NC(=O)c4cncc(C(F)(F)F)n4)ccc3n2)CC1)[C@H]1CCN(c2cccc3c2n(C)c(=O)n3C2CCC(=O)NC2=O)C[C@@H]1F (single isomer, unassigned) [I-294]"
observed_value = "< 10 nM"

[[record]]
compound = "Cn1c(=O)n(C2CCC(=O)NC2=O)c2ccc(F)c(N3CCC4(CCN(C[C@H]5CC[C@H](n6cc7cc(NC(=O)c8cncc(C#N)c8)c(C(C)(C)O)cc7n6)CC5)CC4(F)F)CC3)c21 (some centres unmarked) [I-393]"
observed_value = "< 10 nM"


Note to self: DC50 recorded for COc1ccc2c(c1N1CC[C@H](N(C)C[C@H]3CC[C@H](n4cc(NC(=O)c5cnn6cccnc56)c(C(F)F)n4)CC3)[C@@H](F)C1)n(C)c(=O)n2C1CCC(=O)NC1=O (single isomer, unassigned) [I-146] was < 10 nM

* * *

# DC50 values compiled below
# experimental_system: IRAK4 (Homo sapiens, UniProt Q9NWZ3)
# Construct: endogenous in cells; host or cells: OCI-LY10
# protocol_notes: IRAK4 MSD degradation in OCI-LY10
# Assay type: cell-based
# settings: OCI-LY10 cells, 24 hrs, Meso Scale Discovery

Some entries whose results are on file:
[[record]]
compound = "Cn1c(=O)n(C2CCC(=O)NC2=O)c2cccc([C@H]3CCN(C[C@H]4CC[C@H](n5cc6cc(NC(=O)c7cncc(C(F)(F)F)n7)ccc6n5)CC4)CC3(F)F)c21 (single isomer, unassigned)"
experimental_system = "IRAK4 (Homo sapiens, UniProt Q9NWZ3)"
observed_value = "< 10 nM"

[[record]]
compound = "Cn1c(=O)n(C2CCC(=O)NC2=O)c2cccc(N3CCC4(CCN(C[C@H]5CC[C@H](n6cc7cc(NC(=O)c8cccc(C(F)(F)F)c8)ncc7n6)CC5)CC4(F)F)CC3)c21 (some centres unmarked)"
experimental_system = "IRAK4 (Homo sapiens, UniProt Q9NWZ3)"
observed_value = "10 to 100 nM"

[[record]]
compound = "O=C1CCC(c2noc3c(NC(=O)CN4CCN(C[C@H]5CC[C@H](n6cc7cc(NC(=O)c8cccc(C(F)(F)F)n8)ncc7n6)CC5)CC4)cccc23)C(=O)N1 (some centres unmarked)"
experimental_system = "IRAK4 (Homo sapiens, UniProt Q9NWZ3)"
observed_value = "10 to 100 nM"

[[record]]
compound = "COc1cc2nn([C@H]3CC[C@H](CN4CCC5(CCN(c6ccc(C7CCC(=O)NC7=O)c(Cl)c6)CC5)C(F)(F)C4)CC3)cc2cc1NC(=O)c1cncc(C#N)c1 (some centres unmarked)"
experimental_system = "IRAK4 (Homo sapiens, UniProt Q9NWZ3)"
observed_value = "10 to 100 nM"


Note to self: DC50 recorded for Cn1c(=O)n(C2CCC(=O)NC2=O)c2cccc([C@@H]3CCN(C[C@H]4CC[C@H](n5cc6cc(NC(=O)c7cncc(C(C)(C)C)n7)ncc6n5)CC4)C[C@H]3F)c21 (some centres unmarked) was < 10 nM

FYI, the data here is from patent US20250059164A1.
